The reported measurements were obtained from the supplement of paper PMC9694430.

# System: LOC_OS03G27990-cb004;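 further: purified Escherichia coli-expressed rice kinase domain construct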
# assay.text: thermal shift delta Tm vs DMSO control; higher = stronger stabilization (binding)
# experimental.context: 12.5 µM; protein concentration 2 µM
Counter-ions that a name gives are not always drawn.
If the reported thermal shift delta Tm equals or exceeds 0.5 °C, assign yes (1). If not, assign no (0).

molecule=COc1ccc2c(Oc3ccc(NC(=O)c4c(C)n(CC(C)(C)O)n(-c5ccccc5)c4=O)nc3)ccnc2c1 assigned_label="no (0)"
molecule=Cn1cc(/C=C2\C(=O)Nc3cccnc32)c2ccccc21 assigned_label="yes (1)"
molecule="O=C(Nc1ccc(-c2ccnc(Nc3ccc(N4CCOCC4)cc3)n2)cc1)C1CCCN1 (stereo not drawn)" assigned_label="no (0)"
molecule=CCc1ccc(/C=C2/SC(=S)NC2=O)cc1 assigned_label="yes (1)"
molecule=CCN1CCN(Cc2ccc(C(=O)Nc3ccc(C)c(Oc4ccc5c(c4)CC(=O)N5)c3)cc2C(F)(F)F)CC1 assigned_label="yes (1)"
molecule=Oc1c(F)cc(-c2cnccc2-c2ccc(N3CCOCC3)cc2)cc1F assigned_label="no (0)"
molecule=COc1cc(N2CCC(N)CC2)ccc1Nc1ncc(Cl)c(-c2c[nH]c3ccccc23)n1 assigned_label="yes (1)"
molecule=O=C(O)c1ccc2c(c1)nc(Nc1cccc(Cl)c1)c1ccncc12 assigned_label="yes (1)"
molecule=O=C(NOC[C@H](O)CO)c1ccc(F)c(F)c1Nc1ccc(I)cc1F assigned_label="no (0)"
molecule=C#Cc1cccc(Nc2ncnc3cc4c(cc23)OCCOCCOCCO4)c1 assigned_label="no (0)"
molecule="COc1cc2c3cc1Oc1c(OC)c(OC)cc4c1[C@@H](Cc1ccc(O)c(c1)Oc1ccc(cc1)C[C@@H]3N(C)CC2)N(C)CC4 [Berbamine (dihydrochloride)]" assigned_label="no (0)"
molecule=COc1ccc([C@@H]2OC[C@H]3[C@@H]2CO[C@@H]3c2ccc(O[C@@H]3O[C@H](CO)[C@@H](O)[C@H](O)[C@H]3O)c(OC)c2)cc1OC assigned_label="no (0)"
molecule=Cn1cnc2c(F)c(Nc3ccc(Br)cc3F)c(C(=O)NOCCO)cc21 assigned_label="no (0)"
molecule="Cc1ccc(C(=O)Nc2ccc(CN3CCN(C)CC3)c(C(F)(F)F)c2)cc1C#Cc1cnc2[nH]ncc2c1 [GZD824 Dimesylate]" assigned_label="yes (1)"
molecule=Cc1nc2ccc(-n3ncc(C(=O)c4cc5ccccc5[nH]4)c3N)cc2[nH]1 assigned_label="no (0)"
molecule=COc1cc(-c2cc(-c3ccc(N4CCNCC4)cc3)cnc2C)cc(OC)c1OC assigned_label="no (0)"
molecule="CCN(CC)CCCC(C)Nc1ccnc2cc(Cl)ccc12 (stereo not drawn) [Chloroquine Phosphate]" assigned_label="no (0)"
